- Assayed system: T1, recombinant human TGF-β RII/Fc chimera protein (human, UniProt P37173 24-159)
- T1 construct: range 24-159; Made in HEK-F cells; Biotinylated where it was put on SA chips, otherwise captured by anti-human IgG; also called human TGFbRII/Fc; hRII-Fc; not shown: Fc region of human IgG1
- T1 sequence (P37173 24-159 limits assumed, change not shown): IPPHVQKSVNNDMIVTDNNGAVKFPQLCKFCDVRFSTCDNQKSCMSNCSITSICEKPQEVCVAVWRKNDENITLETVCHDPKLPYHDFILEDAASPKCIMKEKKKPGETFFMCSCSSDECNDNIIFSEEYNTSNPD
- Procedure summary: SPR Biacore T200, receptor-Fc captured by anti-human IgG, dAb as analyte, 1:1 model
Recorded log10(koff) by entry
Could you please treat all values as log10 of koff in s⁻¹?

Binder | Result type | Measurement
DOM23h-271-129 (VHH, expressed from pC10) VHH: EVQLLESGGGLVQPGGSLRLSCAASGSTFTEYRMWWVRQAPGKGLEWVSAIEPIGHRTYYADSVKGRFTISRDNSKNTLYLQMNSLRAEDTAVYYCAKQAPNQRYVARGRLDYWGQGTLVTVSS | log10(koff) | -3.39

Short answer for DOM23h-439-40 (DOM23h-439-25 + C-terminal Alanine) (VHH, human VH dAb) VHH: EVQLLESGGGLVQPGGSLRLSCAASGFTFGTEQMWWVRQAPGKGLEFVSRIDSPGGRTYYADSVKGRFTISRDNSKNTLYLQMNSLRAEDTAVYYCAKRRPTGVSGTFYDYWGQGTLVTVSS : log10(koff) was -2.86
